Target: dopamine receptors (Bos taurus, UniProt P20288)
Sequence (P20288 whole entry): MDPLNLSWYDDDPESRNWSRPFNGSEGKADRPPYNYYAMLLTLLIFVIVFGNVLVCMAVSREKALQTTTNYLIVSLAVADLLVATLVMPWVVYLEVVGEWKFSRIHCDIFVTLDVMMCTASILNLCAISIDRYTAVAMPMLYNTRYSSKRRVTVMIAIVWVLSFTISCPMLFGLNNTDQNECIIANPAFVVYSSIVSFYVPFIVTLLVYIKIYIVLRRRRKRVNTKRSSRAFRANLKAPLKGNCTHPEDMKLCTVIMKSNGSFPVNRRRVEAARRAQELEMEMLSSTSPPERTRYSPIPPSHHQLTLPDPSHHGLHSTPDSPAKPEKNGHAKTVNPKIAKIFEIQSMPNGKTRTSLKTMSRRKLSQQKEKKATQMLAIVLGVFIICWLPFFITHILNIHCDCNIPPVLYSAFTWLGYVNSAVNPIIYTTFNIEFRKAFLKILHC
measurement-label: IC50 (nM)

compound	measurement-label	value-observed
CC(C)(C)C1(O)CCN(CC2c3ccccc3Oc3ccccc32)CC1.Cl [Compound F, hydrochloride]	IC50	310
OC1CCN(CC(c2ccccc2)c2ccccc2)CC1C1(O)CCN(CC(c2ccccc2)c2ccccc2)CC1 (stereo not shown)	IC50	90
CC(C)(C)C1(O)CCN(CC2c3ccccc3CCc3ccccc32)CC1	IC50	2.4
CC(C)(C)C1(O)CCN(CC2c3ccccc3C=Cc3ccccc32)CC1.Cl [Compound D, hydrochloride]	IC50	37
O=C1CCN(CC(c2ccccc2)c2ccccc2)CC1C1(O)CCN(CC(c2ccccc2)c2ccccc2)CC1 (stereo not shown)	IC50	500
O=C1CCN(CC(c2ccc(Cl)cc2)c2ccc(Cl)cc2)CC1C1(O)CCN(CC(c2ccc(Cl)cc2)c2ccc(Cl)cc2)CC1 (stereo not shown)	IC50	10000
Cl.Cl.NC1CCN(CC2c3ccccc3CCc3ccccc32)CC1 [Compound E, dihydrochloride]	IC50	2500
CC(C)(C)C1(O)CCN(CC2c3ccccc3CCc3ccc(Br)cc32)CC1.Cl (stereo not shown) [Compound C, hydrochloride]	IC50	280
CC(C)(C)C1(O)CCN(CC(c2ccccc2)c2ccccc2)CC1	IC50	160
CC(C)(C)C1(O)CCN(CC2c3ccccc3Sc3ccccc32)CC1.Cl [Compound G, hydrochloride]	IC50	290

###

Target: dopamine receptors
Assay: Receptor Binding Assay, displacement of ^3 H-dopamine binding to calf caudate membranes
Conditions: read-out: ^3 H-Dopamine (IC50), calf caudate membrane homogenate, 37° C., 10 minutes, non-specific binding with 10^-5 M (+)-Butaclamol
measurement-label: IC50 (µM)

compound	measurement-label	unit-abbrev	value-observed
CC(C)(C)C1(O)CCN(CC(c2ccccc2)c2ccccc2)CC1 [Compound H]	IC50	µM	60
CC(C)(C)C1(O)CCN(CC2c3ccccc3CCc3cc(Cl)ccc32)CC1 (stereo not drawn) [Compound B]	IC50	µM	0.88
CC(C)(C)C1(O)CCN(CC2c3ccccc3C=Cc3ccccc32)CC1.Cl [Compound D, hydrochloride]	IC50	µM	7.2
OC1CCN(CC(c2ccccc2)c2ccccc2)CC1C1(O)CCN(CC(c2ccccc2)c2ccccc2)CC1 (stereo not drawn) [Compound J]	IC50	µM	25
CC(C)(C)C1(O)CCN(CC2c3ccccc3CCc3ccccc32)CC1 [Compound A]	IC50	µM	15
O=C1CCN(CC(c2ccccc2)c2ccccc2)CC1C1(O)CCN(CC(c2ccccc2)c2ccccc2)CC1 (stereo not drawn) [Compound I]	IC50	µM	27
CC(C)(C)C1(O)CCN(CC2c3ccccc3Sc3ccccc32)CC1.Cl [Compound G, hydrochloride]	IC50	µM	4.5
CC(C)(C)C1(O)CCN(CC2c3ccccc3Oc3ccccc32)CC1.Cl [Compound F, hydrochloride]	IC50	µM	15
CC(C)(C)C1(O)CCN(CC2c3ccccc3CCc3ccc(Br)cc32)CC1.Cl (stereo not drawn) [Compound C, hydrochloride]	IC50	µM	1.7

Values from patent US4188485A
